experiment: The drug is tested on Z-004 corresponding to metagenome with ENA study accession number: PRJEB37062 and ENA sample accession number: ERS12561804 for biotransformation under anaerobic condition. The drug concentrations were measured over 9 timepoints collected between 0 and 24 hours of incubation by liquid-chromatography-coupled mass spectrometry (LC–MS); conditions: 2 µM; further: call rule not given here
Measured Attribute: Bacterial Biotransformation

compound="O=C(O)CCC(=O)O.O=C(O[C@H]1CN2CCC1CC2)N1CCc2ccccc2[C@@H]1c1ccccc1 [SOLIFENACIN SUCCINATE]" result="Compound metabolized"
compound=OCCN(CCO)c1nc(N2CCCCC2)c2nc(N(CCO)CCO)nc(N3CCCCC3)c2n1 result="Compound NOT metabolized"
compound=CCN(C(C)=O)c1cccc(-c2ccnc3c(C#N)cnn23)c1 result="Compound metabolized"
compound=COc1ccc2c(c1)c(CC(=O)O)c(C)n2C(=O)c1ccc(Cl)cc1 result="Compound NOT metabolized"
compound="CN(C)C(=O)Oc1cccc([N+](C)(C)C)c1.[Br-] [NEOSTIGMINE BROMIDE]" result="Compound NOT metabolized"
compound="CC(=O)SCC(Cc1ccccc1)C(=O)NCC(=O)OCc1ccccc1 (stereo unspecified)" result="Compound metabolized"
compound=CN[C@H]1CC[C@@H](c2ccc(Cl)c(Cl)c2)c2ccccc21 result="Compound metabolized"
compound="CC(=O)OCC(=O)[C@@]1(OC(C)=O)[C@@H](C)C[C@H]2[C@@H]3C[C@H](F)C4=CC(=O)C=C[C@]4(C)[C@@]3(F)[C@@H](O)C[C@@]21C [DIFLORASONE DIACETATE]" result="Compound NOT metabolized"
compound="COc1ccc(CN2CCNCC2)c(OC)c1OC.Cl.Cl [TRIMETAZIDINE DIHYDROCHLORIDE]" result="Compound NOT metabolized"
compound=COc1ccc([C@@H]2Sc3ccccc3N(CCN(C)C)C(=O)[C@@H]2OC(C)=O)cc1 result="Compound metabolized"
compound="Cc1ccccc1C(OCCN(C)C)c1ccccc1.O=C(O)CC(O)(CC(=O)O)C(=O)O (stereo unspecified) [ORPHENADRINE CITRATE]" result="Compound metabolized"

* * *

details: human gut metagenome, 24 h, 2 µM
Measured Attribute: Bacterial Biotransformation

compound=COc1ccc(/C=C/C(=O)Nc2ccccc2C(=O)O)cc1OC result="Compound NOT metabolized"
compound="CC(=O)OCC(=O)[C@@]1(OC(C)=O)[C@@H](C)C[C@H]2[C@@H]3C[C@H](F)C4=CC(=O)C=C[C@]4(C)[C@@]3(F)[C@@H](O)C[C@@]21C [DIFLORASONE DIACETATE]" result="Compound metabolized"
compound="CN(C)CCC=C1c2ccccc2COc2ccccc21 [DOXEPIN]" result="Compound metabolized"
compound=CN1[C@@H]2CC[C@H]1C[C@@H](OC(=O)c1c[nH]c3ccccc13)C2 result="Compound NOT metabolized"
compound=CC(C)(C)N.CCC[C@H](N[C@@H](C)C(=O)N1[C@H](C(=O)O)C[C@@H]2CCCC[C@@H]21)C(=O)OCC result="Compound metabolized"
compound="CC(N)C12CC3CC(CC(C3)C1)C2 (stereo unspecified)" result="Compound NOT metabolized"

* * *

details: human gut metagenome, 24 h, 2 µM
Measured Attribute: Bacterial Biotransformation

compound=COc1ccc([C@@H]2Sc3ccccc3N(CCN(C)C)C(=O)[C@@H]2OC(C)=O)cc1 result="Compound NOT metabolized"
compound=CCS(=O)(=O)CCn1c([N+](=O)[O-])cnc1C result="Compound metabolized"
compound="CC(C)c1c(CN(C)C(C)Cc2ccccc2)n(C)n(-c2ccccc2)c1=O (stereo not drawn)" result="Compound metabolized"
compound=CNCC[C@H](Oc1cccc2ccccc12)c1cccs1 result="Compound NOT metabolized"
compound=COc1ccc(Cc2nccc3cc(OC)c(OC)cc23)cc1OC result="Compound metabolized"
compound=CC(C)c1nc(N(C)S(C)(=O)=O)nc(-c2ccc(F)cc2)c1/C=C/[C@@H](O)C[C@@H](O)CC(=O)[O-].CC(C)c1nc(N(C)S(C)(=O)=O)nc(-c2ccc(F)cc2)c1/C=C/[C@@H](O)C[C@@H](O)CC(=O)[O-].[Ca+2] result="Compound metabolized"
compound="CCOC(=O)[C@H](CCc1ccccc1)N[C@@H](C)C(=O)N1CCC[C@H]1C(=O)O.O=C(O)/C=C\\C(=O)O [ENALAPRIL MALEATE]" result="Compound NOT metabolized"
compound=CCOC(=O)[C@H](CCc1ccccc1)N[C@@H](C)C(=O)N1Cc2ccccc2C[C@H]1C(=O)O result="Compound NOT metabolized"

* * *

assay: The drug is tested on WLS-038 corresponding to human gut metagenome with ENA study accession number: PRJEB37062 and ENA sample accession number: ERS12561745 for biotransformation under anaerobic condition. The drug concentrations were measured over 9 timepoints collected between 0 and 24 hours of incubation by liquid-chromatography-coupled mass spectrometry (LC–MS); settings: 2 µM
Measured Attribute: Bacterial Biotransformation

compound="CCN(C)C(=O)Oc1cccc([C@H](C)N(C)C)c1.O=C(O)C(O)C(O)C(=O)O [RIVASTIGMINE TARTRATE]" result="Compound metabolized"
compound="C[N+]12CCC(CC1)C(OC(=O)C(O)(c1ccccc1)c1ccccc1)C2.[Br-] (stereo not drawn) [CLIDINIUM BROMIDE]" result="Compound NOT metabolized"
compound=O=C(O)c1cc(/N=N/c2ccc(S(=O)(=O)Nc3ccccn3)cc2)ccc1O result="Compound metabolized"
compound=COc1ccc([C@@H]2Sc3ccccc3N(CCN(C)C)C(=O)[C@@H]2OC(C)=O)cc1 result="Compound NOT metabolized"
compound="COc1ccccc1OCCNCC(O)COc1cccc2[nH]c3ccccc3c12 (stereo not drawn)" result="Compound metabolized"
compound=COC1=C(OC)C(=O)C(CCCCCCCCCCO)=C(C)C1=O result="Compound metabolized"
compound="CCOC(=O)[C@H](CCc1ccccc1)N[C@@H](C)C(=O)N1CCC[C@H]1C(=O)O.O=C(O)/C=C\\C(=O)O [ENALAPRIL MALEATE]" result="Compound NOT metabolized"
compound="CC(=O)OCC(=O)[C@@]1(OC(C)=O)[C@@H](C)C[C@H]2[C@@H]3C[C@H](F)C4=CC(=O)C=C[C@]4(C)[C@@]3(F)[C@@H](O)C[C@@]21C [DIFLORASONE DIACETATE]" result="Compound metabolized"

* * *

test: The drug is tested on Z-016 corresponding to mouse gut metagenome with ENA study accession number: PRJEB37062 and ENA sample accession number: ERS12561815 for biotransformation under anaerobic condition. The drug concentrations were measured over 9 timepoints collected between 0 and 24 hours of incubation by liquid-chromatography-coupled mass spectrometry (LC–MS); settings: 2 µM
Measured Attribute: Bacterial Biotransformation

compound="CC(=O)OCC(CCn1cnc2cnc(N)nc21)COC(C)=O [FAMCICLOVIR]" result="Compound NOT metabolized"
compound="CC1Cc2ccccc2N1NC(=O)c1ccc(Cl)c(S(N)(=O)=O)c1 (configuration not stated) [INDAPAMIDE]" result="Compound NOT metabolized"
compound="CN1C[C@H](C(=O)N[C@]2(C)O[C@@]3(O)[C@@H]4CCCN4C(=O)[C@H](Cc4ccccc4)N3C2=O)C[C@@H]2c3cccc4[nH]cc(c34)C[C@H]21.CS(=O)(=O)O [DIHYDROERGOTAMINE MESYLATE]" result="Compound NOT metabolized"
compound="N#Cc1ccc2[nH]cc(CCCCN3CCN(c4ccc5oc(C(N)=O)cc5c4)CC3)c2c1 [VILAZODONE]" result="Compound metabolized"
compound="COc1ccc(Cc2nccc3cc(OC)c(OC)cc23)cc1OC [PAPAVERINE]" result="Compound NOT metabolized"
compound="C[C@]12C=CC(=O)C=C1CC[C@@H]1[C@@H]2C(=O)C[C@@]2(C)[C@H]1CC[C@]2(O)C(=O)CO [PREDNISONE]" result="Compound metabolized"
compound="CCN(C(C)=O)c1cccc(-c2ccnc3c(C#N)cnn23)c1 [ZALEPLON]" result="Compound metabolized"
compound="CCOc1cc(CC(=O)N[C@@H](CC(C)C)c2ccccc2N2CCCCC2)ccc1C(=O)O [REPAGLINIDE]" result="Compound metabolized"
compound="O=C1CN2Cc3c(ccc(Cl)c3Cl)N=C2N1 [ANAGRELIDE]" result="Compound NOT metabolized"
compound="O=C(CCCN1CCC2(CC1)C(=O)NCN2c1ccccc1)c1ccc(F)cc1 [SPIPERONE]" result="Compound NOT metabolized"
compound="CC(=O)Nc1ccc(OC(C)=O)cc1 [DIACETAMATE]" result="Compound metabolized"
compound="C=CC[C@@H]1/C=C(\\C)C[C@H](C)C[C@H](OC)[C@H]2O[C@@](O)(C(=O)C(=O)N3CCCC[C@H]3C(=O)O[C@H](/C(C)=C/[C@@H]3CC[C@@H](O)[C@H](OC)C3)[C@H](C)[C@@H](O)CC1=O)[C@H](C)C[C@@H]2OC.O [TACROLIMUS]" result="Compound NOT metabolized"
compound="CN1CCC(=C2c3ccccc3CC(=O)c3sccc32)CC1.O=C(O)/C=C/C(=O)O [KETOTIFEN FUMARATE]" result="Compound NOT metabolized"
compound="O=C1C(CC[S+]([O-])c2ccccc2)C(=O)N(c2ccccc2)N1c1ccccc1 (configuration not stated) [SULFINPYRAZONE]" result="Compound NOT metabolized"
compound="CC(C)c1c(CN(C)C(C)Cc2ccccc2)n(C)n(-c2ccccc2)c1=O (configuration not stated) [FAMPROFAZONE]" result="Compound metabolized"
compound="CN1CCCCC1CCN1c2ccccc2Sc2ccc([S+](C)[O-])cc21.O=S(=O)(O)c1ccccc1 (configuration not stated) [MESORIDAZINE BESYLATE]" result="Compound metabolized"
compound="O=P1(N(CCCl)CCCl)NCCCO1 (configuration not stated) [CYCLOPHOSPHAMIDE ANHYDROUS]" result="Compound NOT metabolized"
compound="CSc1ccc2c(c1)C(N1CCN(C)CC1)Cc1ccccc1S2.O=C(O)/C=C\\C(=O)O (configuration not stated)" result="Compound metabolized"
compound="COc1ccc([C@@H]2Sc3ccccc3N(CCN(C)C)C(=O)[C@@H]2OC(C)=O)cc1 [DILTIAZEM]" result="Compound metabolized"
compound="CCc1cccc2c3c([nH]c12)C(CC)(CC(=O)O)OCC3 (configuration not stated) [ETODOLAC]" result="Compound NOT metabolized"
compound="COc1cc2nc(N3CCN(C(=O)C4COc5ccccc5O4)CC3)nc(N)c2cc1OC.CS(=O)(=O)O (configuration not stated) [DOXAZOSIN MESYLATE]" result="Compound NOT metabolized"
compound="CCOc1ccc2nc(S(N)(=O)=O)sc2c1 [ETHOXZOLAMIDE]" result="Compound NOT metabolized"
compound=COc1ccc(/C=C/C(=O)Nc2ccccc2C(=O)O)cc1OC result="Compound metabolized"
compound="C[C@]12CCC(=O)C=C1[C@@H]1C[C@@H]1[C@H]1[C@@H]3[C@@H]4C[C@@H]4[C@@]4(CCC(=O)O4)[C@@]3(C)CC[C@@H]12 [DROSPIRENONE]" result="Compound metabolized"
compound="CC(NC(C)(C)C)C(=O)c1cccc(Cl)c1 (configuration not stated) [BUPROPION]" result="Compound NOT metabolized"
compound="CCS(=O)(=O)CCn1c([N+](=O)[O-])cnc1C [TINIDAZOLE]" result="Compound metabolized"
compound="COC1=C(OC)C(=O)C(CCCCCCCCCCO)=C(C)C1=O [IDEBENONE]" result="Compound metabolized"
